# Target or test system: CYP11A1 (Homo sapiens)
# Sequence (P05108 40-521): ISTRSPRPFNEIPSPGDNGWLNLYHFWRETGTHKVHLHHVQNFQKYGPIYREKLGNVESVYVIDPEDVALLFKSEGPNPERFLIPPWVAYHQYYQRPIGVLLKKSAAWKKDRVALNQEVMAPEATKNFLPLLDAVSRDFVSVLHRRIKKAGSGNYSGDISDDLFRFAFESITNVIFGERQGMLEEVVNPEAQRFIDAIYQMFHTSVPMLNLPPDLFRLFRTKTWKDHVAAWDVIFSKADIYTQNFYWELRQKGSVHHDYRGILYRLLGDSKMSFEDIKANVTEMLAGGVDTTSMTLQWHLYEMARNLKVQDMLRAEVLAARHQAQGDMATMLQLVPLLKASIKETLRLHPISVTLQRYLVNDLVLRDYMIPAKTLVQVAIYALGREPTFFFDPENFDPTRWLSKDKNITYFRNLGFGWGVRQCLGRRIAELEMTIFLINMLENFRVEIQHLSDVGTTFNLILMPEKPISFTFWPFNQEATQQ
Attribute measured: pKd
Expect pKd as a plain number equal to -log10 of the molar concentration.

Query: Specify pKd for N#Cc1ccc([C@H]2CCc3cncn32)c(F)c1 , system CYP11A1 (Homo sapiens).
Result: 4.73

====

# Target or test system: UniProt:P19099
# Sequence (P19099 25-503): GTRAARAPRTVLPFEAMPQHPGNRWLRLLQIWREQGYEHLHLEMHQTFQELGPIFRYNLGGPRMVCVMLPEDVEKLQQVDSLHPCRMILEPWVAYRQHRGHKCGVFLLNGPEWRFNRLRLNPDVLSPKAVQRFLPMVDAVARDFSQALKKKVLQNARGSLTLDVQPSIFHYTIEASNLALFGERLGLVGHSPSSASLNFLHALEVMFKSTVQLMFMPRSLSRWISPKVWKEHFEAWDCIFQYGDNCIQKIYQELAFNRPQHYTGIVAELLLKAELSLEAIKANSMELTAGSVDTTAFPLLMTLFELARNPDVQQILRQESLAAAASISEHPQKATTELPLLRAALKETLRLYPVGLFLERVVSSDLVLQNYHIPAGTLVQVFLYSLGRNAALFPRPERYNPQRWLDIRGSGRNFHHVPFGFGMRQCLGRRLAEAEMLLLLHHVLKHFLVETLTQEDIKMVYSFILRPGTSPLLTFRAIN
Attribute measured: pKd
The quantity pKd is defined as the negative base-10 logarithm of the molar concentration.

Query: State measured pKd of the compound C[C@]12CC[C@H]3[C@@H](CCC4=CC(=O)CC[C@@]43C)[C@@H]1CC[C@@H]2C(=O)CO with UniProt:P19099.
Result: 6.57
